B1: 5KPH (parent)
chain: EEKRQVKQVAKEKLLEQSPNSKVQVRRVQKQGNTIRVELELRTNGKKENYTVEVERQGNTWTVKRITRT

variants of: B1; experiment: folding stability dG (cDNA display proteolysis); higher = more stable; details: PBS, room temperature
Each item that follows carries a reported folding stability dG.
Answer format: value, then unit.

# example entries with known answers
N20S    3.81 kcal/mol
Q8I    3.76 kcal/mol
K11A    3.8 kcal/mol
R4T    3.69 kcal/mol
Q57M    3.89 kcal/mol
W61H    2.59 kcal/mol
K46L    3.79 kcal/mol
E16K    3.24 kcal/mol

The measured folding stability dG associated with "L39N" reads -0.472 kcal/mol

The variant identified as "K47G" registered its folding stability dG at 3.03 kcal/mol

Looking up "Q24F" , I see its folding stability dG listed as 4.47 kcal/mol

Looking up "W61E" , I found its folding stability dG recorded as 0.848 kcal/mol

// sample "R68H" , its folding stability dG was 3.59 kcal/mol

GET /value?item= "K46G" &field=folding stability dG returns 3.49 kcal/mol

The reported folding stability dG of the variant "E1C" was 3.69 kcal/mol

Looking up "N59I" , I found its folding stability dG recorded as 3.54 kcal/mol

// sample "Q8F" , its folding stability dG was 3.03 kcal/mol

# folding stability dG (variant: "L39S" ) is 1.55 kcal/mol

Measured folding stability dG, "Q24Y" : 4.48 kcal/mol

Noted for "R56L" : its folding stability dG reads 3.84 kcal/mol

For "R56P" the variant record lists folding stability dG as 2.93 kcal/mol

Quick note, folding stability dG for "K46C" landed at 3.6 kcal/mol
